These entries and their values trace back to the supplement of paper PMC10126150.

Tested on: ATP;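 also: ATP exposure 15 min at 22 °C before imaging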
assay.explanation: switch fluorescence ratio, 500 uM ATP over buffer (Cy3 cluster intensity, sum of 5 cycles each) (fold (ratio)); higher = stronger signal-on switching upon ATP binding; sequences stand for … in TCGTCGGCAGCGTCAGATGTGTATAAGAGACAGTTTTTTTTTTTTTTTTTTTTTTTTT…TC
condition.details: aptamer strand: ATP DNA aptamer (quencher-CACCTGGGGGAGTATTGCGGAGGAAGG + anchor), 100 nM annealed; ATP concentration: 500 uM
recorded.metric: switch fluorescence ratio

Challenge: Given CAAAGTTGGA , state its recorded switch fluorescence ratio.
Response given: 1.01

Challenge: // switch fluorescence ratio lookup, key: GATCTTTTCG
Response given: 1.01

Challenge: What value of measured switch fluorescence ratio is listed for TTACCCCGTG ?
Response given: 1.13

Challenge: Return reported switch fluorescence ratio; argument: TCATGAACAT
Response given: 1

Challenge: Look at this sequence and give its reported switch fluorescence ratio. GGTGCGTTCT
Response given: 1

Challenge: Item under review: CTGGGGGATA . Reported switch fluorescence ratio?
Response given: 1.02

Challenge: Could you tell me which switch fluorescence ratio is on file for GATACCGGGT ?
Response given: 1.01

Challenge: Need switch fluorescence ratio of TAGTAAAAAC , thanks.
Response given: 0.994

Challenge: Sample CCCCAGAGCT — what was its switch fluorescence ratio?
Response given: 1.66

Challenge: Requested read-out: switch fluorescence ratio. Entry: TTCCAGTCC
Response given: 1.06

Challenge: Look up switch fluorescence ratio: AGGTTGTCAA
Response given: 0.969

Challenge: Need switch fluorescence ratio of TCCAGTAGGT , thanks.
Response given: 1.01

Challenge: Data request, read-out switch fluorescence ratio, for TCTGGGGATG
Response given: 0.974

Challenge: May I ask what switch fluorescence ratio has been recorded for GTGGACCGGA ?
Response given: 1.06

Challenge: Look up switch fluorescence ratio for this sequence: CAGGTTTGGC
Response given: 0.977

Challenge: Reported switch fluorescence ratio for TTATAGACAG : what is it?
Response given: 0.997

Challenge: Name the reported switch fluorescence ratio value associated with the sequence TGGGTTAGCC
Response given: 1.01

Challenge: Recorded switch fluorescence ratio for GTGGTGTGGT , please?
Response given: 0.982

Challenge: Dear colleague, I am looking for the recorded switch fluorescence ratio of the following sequence: TCGAAGAGCG
Response given: 0.976

Challenge: Recorded switch fluorescence ratio of AAGGGGATTG , please.
Response given: 0.986

Challenge: What does the data say about its switch fluorescence ratio? Entry: TAAGGGTTCT
Response given: 0.992

Challenge: What switch fluorescence ratio value was documented for this sequence, CGAAGCTCTG ?
Response given: 1.09

Challenge: Could you tell me which switch fluorescence ratio is on file for GGGATTTGAT ?
Response given: 0.98

Challenge: # get_value(readout='switch fluorescence ratio', item= AAAAAAGTTT )
Response given: 1.02

Challenge: Which switch fluorescence ratio is reported for this sequence? GGGAAGGGGT
Response given: 1.01

Challenge: Would you kindly share the measured switch fluorescence ratio for AGCCGGCCTG ?
Response given: 1.02

Challenge: Data request, read-out switch fluorescence ratio, for AGGCGTGGGA
Response given: 1

Challenge: May I ask what switch fluorescence ratio has been recorded for TATAGGCTTT ?
Response given: 0.97

Challenge: Return reported switch fluorescence ratio; argument: TATTGTTGAC
Response given: 1.04

Challenge: Which switch fluorescence ratio value belongs to TTTGCTAGAT ?
Response given: 1.05

Challenge: Can you share its switch fluorescence ratio? I mean this sequence: GGTTAATCGG
Response given: 0.998

Challenge: Bench note: what switch fluorescence ratio did GGGAGGGCAA show?
Response given: 0.986

Challenge: Which switch fluorescence ratio value belongs to CGGGGAAGGA ?
Response given: 1.02

Challenge: Fill in: switch fluorescence ratio of TTTGGGGTAG is ___
Response given: 0.977

Challenge: Which switch fluorescence ratio value is on record for CGTCTTAGGG ?
Response given: 0.966

Challenge: Bench note: what switch fluorescence ratio did CGGGTAGGTG show?
Response given: 1.03

Challenge: Fill blank: measured switch fluorescence ratio of the sequence TTGTGCCTAT is ____.
Response given: 1

Challenge: Form field: reported switch fluorescence ratio of AGAGTTGGCT
Response given: 0.992

Challenge: Can you look up the measured switch fluorescence ratio of TTTTCATTGT for me?
Response given: 1.02

Challenge: Given the sequence TTGCAGTTC , what is its reported switch fluorescence ratio?
Response given: 1.88

Challenge: For CCGATTAAAT , what is its reported switch fluorescence ratio?
Response given: 1.44

Challenge: # lookup: switch fluorescence ratio of CCATGTATAA
Response given: 1.02

Challenge: Reported switch fluorescence ratio, sequence TAATTTTTTG : ____
Response given: 0.997
